Data provenance is the supplement of paper PMC6555819.

- Test system: PPARa:RXRa (NR concentration 270 nM, RXRa partner concentration 90 nM)
- method: PBM binding z-score (relative to random genomic background probes); higher = stronger binding; sequences stand for … in GC…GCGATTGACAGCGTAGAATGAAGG
metricName: PBM binding z-score

>  <querySequence>
ACTTGTTGGTCAGCTGAGGTCACACACAATTCGG

>  <metricName>
PBM binding z-score

>  <observedValue>
3.79

$$$$
>  <querySequence>
ACTCGGAGGACAAAGGTCGGAGCTACGCCAGTGA

>  <metricName>
PBM binding z-score

>  <observedValue>
2.9

$$$$
>  <querySequence>
CTCAAAAGGTCGGTTGAGGTGAGTATACGGATAA

>  <metricName>
PBM binding z-score

>  <observedValue>
2.98

$$$$
>  <querySequence>
AGTCAAAGTTCAGTACGAGGTAACGTAAAGCACG

>  <metricName>
PBM binding z-score

>  <observedValue>
2.76

$$$$
>  <querySequence>
TTCCCAAGGTGAGCTGAGGTCGTTGATCCAACTC

>  <metricName>
PBM binding z-score

>  <observedValue>
1.55

$$$$
>  <querySequence>
CCTATTAGTTGACCATAAGTGCAACCGAAGCTCG

>  <metricName>
PBM binding z-score

>  <observedValue>
0.517

$$$$
>  <querySequence>
CCGACTGGGGCAAAGTTTACCATACTCAGTACGA

>  <metricName>
PBM binding z-score

>  <observedValue>
3.67

$$$$
>  <querySequence>
GTACCAAGGTGAATAGCTCGTTGATGAGTAGGCG

>  <metricName>
PBM binding z-score

>  <observedValue>
0.416

$$$$
>  <querySequence>
TCATATAGGTAATACAGGTGAATGTCGGCATCTA

>  <metricName>
PBM binding z-score

>  <observedValue>
1.84

$$$$
>  <querySequence>
CCTATTCGTTGACCATAAGGGCAACCGAAGCTCG

>  <metricName>
PBM binding z-score

>  <observedValue>
0.766

$$$$
>  <querySequence>
AAATGTAGGTTACATCCGGGTCATTCAGGCTATG

>  <metricName>
PBM binding z-score

>  <observedValue>
4.62

$$$$
>  <querySequence>
CCTTACGGGTCACTCCAAGTTATAGCATCGGAGT

>  <metricName>
PBM binding z-score

>  <observedValue>
4.54

$$$$
>  <querySequence>
TCTAGTTGGCCACGGAGGTCACACACGACGGGTA

>  <metricName>
PBM binding z-score

>  <observedValue>
3.68

$$$$
>  <querySequence>
CCTACTGGGCCAAAGGTCATCGATTCCAATGCTC

>  <metricName>
PBM binding z-score

>  <observedValue>
6.8

$$$$
>  <querySequence>
CCTGCTAAGTCATGGTCAGCTAATCTACAGTATG

>  <metricName>
PBM binding z-score

>  <observedValue>
-0.22

$$$$
>  <querySequence>
TCTTGTAGATCAACGGGAGGTTAAGAAAGATCGA

>  <metricName>
PBM binding z-score

>  <observedValue>
1.49

$$$$
>  <querySequence>
CCCACTGGGGCAGAAAGGTTACCATACCATCCGG

>  <metricName>
PBM binding z-score

>  <observedValue>
2.12

$$$$
>  <querySequence>
GCTATTAGTTGAAAGGGCGACCGAATGATTCTCG

>  <metricName>
PBM binding z-score

>  <observedValue>
0.973

$$$$
>  <querySequence>
TAGCCCAGGTCATGGGCCAGTATACCACGCGAAC

>  <metricName>
PBM binding z-score

>  <observedValue>
4.31

$$$$
>  <querySequence>
TCAGACAGGTGAAGGTAATTCAGGTACGCAGTCG

>  <metricName>
PBM binding z-score

>  <observedValue>
1.41

$$$$
>  <querySequence>
GCGACTGGCGCATCAGCAGGTTACCATAACTTAA

>  <metricName>
PBM binding z-score

>  <observedValue>
-0.493

$$$$
>  <querySequence>
CCTGCTAGGTAATGGTCAGCTAATCTACAGTATG

>  <metricName>
PBM binding z-score

>  <observedValue>
-0.344

$$$$
>  <querySequence>
CCTTACGGGTCATGGTTATAGCACGGGTGGTACG

>  <metricName>
PBM binding z-score

>  <observedValue>
4.97

$$$$
>  <querySequence>
AGAATGAGGTTATTCAGATCAGGGAATTGCGGTC

>  <metricName>
PBM binding z-score

>  <observedValue>
3.31

$$$$
>  <querySequence>
TCTGCTAGGGCAACGATGGTCAGCTAATCTGCTA

>  <metricName>
PBM binding z-score

>  <observedValue>
0.0492

$$$$
>  <querySequence>
GGGACTGGGGCAAAGCAGGTTACCATAAGGTTGG

>  <metricName>
PBM binding z-score

>  <observedValue>
2.6

$$$$
>  <querySequence>
GCTCTGAGGACAAGGTCAGAGCTTTGTCCGTAGA

>  <metricName>
PBM binding z-score

>  <observedValue>
2.3

$$$$
>  <querySequence>
GAAACGAGGGCATTCGAGTTGATAGCATGGCGAT

>  <metricName>
PBM binding z-score

>  <observedValue>
2.05

$$$$
>  <querySequence>
TCTAGTTGTTCAAAGGTCACACACTCGAAATGCG

>  <metricName>
PBM binding z-score

>  <observedValue>
5.76

$$$$
>  <querySequence>
CCAGACATGTGAGAAGGTAACTCAGCCTCGATTA

>  <metricName>
PBM binding z-score

>  <observedValue>
-0.106

$$$$
>  <querySequence>
CGTCCAAGGTCAAAGGTCCGTGAAGAGATGACGG

>  <metricName>
PBM binding z-score

>  <observedValue>
5.73

$$$$
>  <querySequence>
CGTCCAAGGTGATAGGAGGTCAGTGAAGACAGAT

>  <metricName>
PBM binding z-score

>  <observedValue>
2.71

$$$$
>  <querySequence>
CCTTACGGGTGACGAGGTTATAGCACGACGAGCG

>  <metricName>
PBM binding z-score

>  <observedValue>
2.24

$$$$
>  <querySequence>
GCTTGTAGATCAAGGCTAAGAAAGACTAAGCTAA

>  <metricName>
PBM binding z-score

>  <observedValue>
-0.665

$$$$
>  <querySequence>
ATCTCTAGGTAAGACTCAGTTCAGTGAAGAACGC

>  <metricName>
PBM binding z-score

>  <observedValue>
0.0408

$$$$
>  <querySequence>
AATACAGGGTCAGTAGGCCAGAGTAGGTACGAAT

>  <metricName>
PBM binding z-score

>  <observedValue>
4.47

$$$$
>  <querySequence>
TGTCAAAGTCCAAAGGTAACGTAAGTATCCACAC

>  <metricName>
PBM binding z-score

>  <observedValue>
1.61

$$$$
>  <querySequence>
AGAACGAGGGCACGCTGAGTTGATCGCAGAGTAG

>  <metricName>
PBM binding z-score

>  <observedValue>
2.16

$$$$
>  <querySequence>
TCTAGCAGGCCAGAGGGTCAATCAAGAGGTACGG

>  <metricName>
PBM binding z-score

>  <observedValue>
2.66

$$$$
>  <querySequence>
ATAACGAGGGCAATGAGTTGATAGCACGGGTGGC

>  <metricName>
PBM binding z-score

>  <observedValue>
1.23

$$$$
>  <querySequence>
AGAATGAGGTGAAGATCAGGGAAACAGAATACAT

>  <metricName>
PBM binding z-score

>  <observedValue>
2.91

$$$$
>  <querySequence>
CGTCCAAGGTCAGAGAGGTCAGTGCATGCCGAGT

>  <metricName>
PBM binding z-score

>  <observedValue>
4.76

$$$$
>  <querySequence>
TCATATAGGTAAAAGCTGAAAGTCGGTGTGGTAA

>  <metricName>
PBM binding z-score

>  <observedValue>
1.41

$$$$
>  <querySequence>
AGAACGAGGGCAATGAGTTGCTAGCACGGGTGGC

>  <metricName>
PBM binding z-score

>  <observedValue>
1.23

$$$$
>  <querySequence>
TCTTGTTGATCAAGCAGGTTAAGAAAGCCTGAGT

>  <metricName>
PBM binding z-score

>  <observedValue>
0.497

$$$$
>  <querySequence>
CGACCAAGGTCAAGGTCAGTGAAAGAGACTCGAA

>  <metricName>
PBM binding z-score

>  <observedValue>
6.07

$$$$
>  <querySequence>
TCTTGTGGATCAACAGGAGGTTAAGAAAGATCGA

>  <metricName>
PBM binding z-score

>  <observedValue>
1.19

$$$$
>  <querySequence>
CCTCGGAGGACAGAAGGTTAGAGCTGTCCGCTTT

>  <metricName>
PBM binding z-score

>  <observedValue>
-0.123

$$$$
>  <querySequence>
CCTAACGGGTCACTGACAGGTTATAGCATTTGGA

>  <metricName>
PBM binding z-score

>  <observedValue>
4.42

$$$$
>  <querySequence>
AGTCAAAGTTCAGGACAAGGTAACGTAAAGCACG

>  <metricName>
PBM binding z-score

>  <observedValue>
3.47

$$$$
>  <querySequence>
CGAACTAGGTCAAGGACATTGAATCTCCGCACGC

>  <metricName>
PBM binding z-score

>  <observedValue>
4.43

$$$$
